Experiment: reversal of MRP1-mediated doxorubicin resistance, pilot screen, H69AR cells, doxorubicin co-treatment (AID 601)
Conditions: H69AR cells + 2 uM doxorubicin, CellTiter-Glo, 72 h; at 10 µM; active compounds read high
Calls of active or inactive are those of the source.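 The calls were made as follows: active = viability loss from added drug above about 55%, and viability with drug at most 40%, in both replicates (limit read from the data, passing the limit was not always enough); inconclusive = both conditions met in only one replicate; inactive = neither replicate meets both conditions.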
measurementType: differential viability (reversal)

1) COc1cccc(NC(=O)N2CCCC2C(=O)NC(C)C)c1 (stereo not given); 11.2% (inactive)
2) CC(=O)N(C)C1(c2nnnn2CCOC(=O)Nc2cccc3ccccc23)CCCC1; 3.21% (inactive)
3) N=c1c[n+](N2CCOCC2)[n-]o1; -4.17% (inactive)
4) CCOc1ccc(NC(=O)CN(C)CC(=O)NC2CCCc3ccccc32)cc1OCC (stereo not given); -7.38% (inactive)
5) COc1ccc(OC)c(Nc2cc(-c3ccccc3)nc(N)n2)c1; -36.4% (inactive)
6) COc1ccc(-n2c(Cc3cccn3C)nnc2SCC(=O)Nc2cccc(OC)c2)cc1; 0.895% (inactive)
7) COc1ncnc2c1N=C1CC(C)(C)CC(N)=C1S2; 4.68% (inactive)
8) O=C(COC(=O)c1cncc(Br)c1)NCCC1=CCCCC1; 9.04% (inactive)
9) COC(=O)N1CC(c2ccccc2)CC1=O (stereo not given); 15.1% (inactive)
10) COC(=O)CCC(=O)Nc1cccc(Br)c1; 0.985% (inactive)
11) CN(C)[C@@H]1C(=O)C(C(N)=O)=C(O)[C@@]2(O)C(=O)C3=C(O)c4c(O)ccc(Cl)c4[C@@H](O)[C@H]3C[C@@H]12; 0.66% (inactive)
12) COc1ccc(-n2nc(C(=O)Nc3ccc4c(c3)OCO4)c3c4ccccc4n(C)c3c2=O)cc1; -10.9% (inactive)
13) CC(=O)N1C(=O)N(C)C2C1N(C(C)=O)C(=O)N2C (stereo not given); -1.64% (inactive)
14) CCOC(=O)N1CCC(NC(=O)CS(=O)(=O)Cc2nc(-c3ccccc3C)oc2C)CC1; -4.35% (inactive)
15) CC1/C(=N/O)C(CN(C)C)C2CC1C2(C)C (stereo not given); 31.7% (inactive)
16) CCCNC(=O)c1ccccc1NC(=O)CN(c1ccccc1OCC)S(C)(=O)=O; 7.5% (inactive)
17) CCOC(=O)c1ccc(N2C(=O)CC(N3CCN(C/C=C/c4ccccc4)CC3)C2=O)cc1 (stereo not given); -1.62% (inactive)
18) NS(=O)(=O)c1cc2c(cc1Cl)NC(C1C[C@H]3C=C[C@@H]1C3)NS2(=O)=O (stereo not given in full); -10.8% (inactive)
19) O=C(CCc1ccccc1)Nc1ccncc1; 5.17% (inactive)
20) O=C(CSc1nc2ccsc2c(=O)n1NC(=O)c1ccccc1)Nc1nccs1; 2.06% (inactive)
21) COC(=O)c1ccc(CNC(=O)CSc2nc3sc(C)c(C)c3c(=O)n2C)o1; 15.5% (inactive)
22) Cc1ccc2cc3cc(C(=O)N4CC(C)CC(C)C4)oc3nc2c1 (stereo not given); 3.71% (inactive)
23) CCOC(=O)N1CCN(c2c(N3CCN(c4ccccc4OC)CC3)c(=O)c2=O)CC1; 8.68% (inactive)
24) c1ccc(-n2nnnc2OCCOc2nnnn2-c2ccccc2)cc1; -6.12% (inactive)
25) O=C(OCC(=O)N1CCCC1)c1ccccc1OCc1ccccc1; 11.1% (inactive)
26) CC(COc1ccccc1)NC(C)C(O)c1ccc(O)cc1 (stereo not given); -17.2% (inactive)
27) CC(C)[C@H](NC(=O)OC(C)(C)C)c1nnc(SCC(=O)Nc2ccc(Br)cc2)o1; 5.79% (inactive)
28) O=C(O)CCc1ccc(-c2cccs2)n1CCC(=O)O; 1.25% (inactive)
29) CCC1(C)Cc2c(C#N)c(N)n(N)c(=S)c2CO1 (stereo not given); -7.55% (inactive)
30) c1ccc(-c2cn3c4c(sc3n2)CCCC4)cc1; -25.4% (inactive)
31) Cc1nn(-c2ccc(F)cc2)c(C)c1NS(=O)(=O)c1ccc(Cl)cc1; -5.18% (inactive)
32) CC(C)N(C(=O)COC(=O)c1ccc(O)cc1)C(C)C; 9.85% (inactive)
33) CC(C(=O)OCn1nnc2ccccc2c1=O)N1C(=O)c2ccccc2C1=O (stereo not given); -21% (inactive)
34) CC(C)(C)OC(=O)N1CCC(C(=O)N2CCCCCC2)CC1; 21.3% (inactive)
35) CN(Cc1ccccc1)c1nc2c(c(=O)[nH]c(=O)n2C)n1Cc1ccccc1Cl; 4.96% (inactive)
36) C[N+]12CCC(CC1)C(OC(=O)C(O)(c1ccccc1)c1ccccc1)C2 (stereo not given); 11.9% (inactive)
37) CCOC(=O)C1CCN(c2c(N3CCCCCC3)c(=O)c2=O)CC1; 0.92% (inactive)
38) CCOC(=O)C1CCN(c2c(Nc3ccc4c(c3)OCCO4)c(=O)c2=O)CC1; -0.805% (inactive)
39) Nc1ccc(S(=O)(=O)Nc2ncccn2)cc1; 5.02% (inactive)
40) O=C(Nn1c(C2CC2)nc2ccccc2c1=O)c1ccco1; -0.5% (inactive)
41) Cc1ccc2cc(CN(Cc3ccc4c(c3)OCO4)Cc3nnnn3Cc3ccco3)c(=O)[nH]c2c1C; 13.3% (inactive)
42) CCN1CCN(c2cc3c(cc2F)c(=O)c(C(=O)O)cn3C2CC2)CC1; 3.18% (inactive)
43) CC(C)CCn1c(=O)c2ccccc2n2c(CN(C)Cc3ccccc3)nnc12; 72.3% (active)
44) COc1ccc(CC(NC(C)=O)C(=O)NC2CCN(c3nc(C)cc(C)c3C#N)CC2)c(OC)c1 (stereo not given); -0.69% (inactive)
45) O=S(=O)(NC1CCCC1)c1ccccc1Cl; 2.58% (inactive)

Numbers sourced from PubChem BioAssay.
